Tested on: SN12C
Assay Comment: NCI tumour cell line growth inhibition, 48 h
Active and inactive are the calls of the source. Rule as the data show it: active = GI50 up to about 1.1 µM and inactive = higher.
Give measured GI50 for each item. Keep answers brief.

CCOC(=O)N(C)C1(c2ccccc2)CCN(CCCC(=O)c2ccc(F)cc2)CC1
83.4 µM (inactive)
COc1ccc(/C=C/C(=O)c2sc(-c3cccnc3)nc2C)cc1
64.6 µM (inactive)
CCC12CCC(O)C1N(C)CCC2Sc1ccccc1 (stereo not given)
> 100 µM (inactive)
COc1cc(/C=N/c2ccc(Oc3ccc(Cl)cc3)c(Cl)c2)cc(OC)c1OC
20.9 µM (inactive)

API: the following record is the query input.
# input Would you mind telling me what GI50 value was observed for `N=C(N)NS(=O)(=O)c1ccc(NC(=O)c2ccc3nc4ccccc4c(Nc4ccc(S(N)(=O)=O)cc4)c3c2)cc1` ?
# output > 100 µM (inactive)

====

System: NCI-H522
Assay Comment: NCI tumour cell line growth inhibition, 48 h
Activity calls are given as the source filed them. No stated cut-off is given here; in the data, active = GI50 up to about 1.1 µM and inactive = higher.
Your answer must be one of the following: True (active), False (inactive)

Solved entries (count: 5):
COP(=O)(OC)C12CCOCCN1c1ccccc1C2=O (stereo not given)
False
Cc1ccc(C(=O)N/N=C(\N=N\c2ccccc2)c2ccc(N(CCC#N)CCC#N)cc2C)cc1
False
O=c1ccc(=O)c2c(=O)c3ccccc3c(=O)c1=2
False
CC(=O)NNc1nc(C)c(C(/C=C/c2ccc([N+](=O)[O-])cc2)=N/NC(N)=O)s1
False
NC1CC(Cl)c2c(Cl)sc(Cl)c21 (stereo not given)
True

# input Returns: the outcome recorded for `O=C(CCCc1ccccn1)c1ccccc1` in this assay.
# output False

# input Recorded test outcome, item `COc1ccc(-c2ccccc2)c(N/N=C2\CCCNC2=O)c1`
# output False

# input Test call for this molecule, please: O=C1C2=C(c3ccccc31)C(c1ccccc1Cl)NC(S)=N2 (stereo not given)
# output False

# input Recorded test call requested for `COC(=O)c1oc([N+](=O)[O-])c(-c2ccccc2)c1-c1ccccc1`
# output False

# input Field: outcome | Entry: COC(=O)N/N=C(\c1nc2ccc(Cl)cc2nc1O)C(O)c1ccc([N+](=O)[O-])cc1 (stereo not given)
# output False

====

System: NCI-H23
Assay Comment: NCI tumour cell line growth inhibition, 48 h
Active and inactive are the calls of the source. Rule as the data show it: active = GI50 up to about 1.1 µM and inactive = higher.
Exercise: for every item that follows, state its recorded GI50.

For orientation, consider the following solved cases.
COc1ccc2c(c1)CN1C(=N2)CSC1c1cccc(Br)c1 (stereo not drawn)
17.7 µM (inactive)
COC(=O)Cc1c(-c2[nH]c3ccccc3c2CC(=O)OC)[nH]c2ccccc12
> 55.5 µM (inactive)
CNc1ccc(/C=C2\C=Cc3ccccc32)cc1
16.7 µM (inactive)

Hi! Can you tell me GI50 for each of these compounds?
1. NC1c2c(Br)sc(N3CCCC3)c2C(=O)C1O (stereo not drawn)
2. CN1N=C(N)c2cn(C3OC(COP(=O)(O)O)C(O)C3O)c3ncnc1c23 (stereo not drawn)
3. O=C(O)CC1(CC(=O)O)Nc2ccccc2SC1=O

# output
1. > 50 µM (inactive)
2. 25.9 µM (inactive)
3. > 100 µM (inactive)

Please supply GI50 for each of the following items, keeping them in order.
1. C[C@]12CC(c3ccccc3O1)C(C(=O)NC13CC4CC(CC(C4)C1)C3)C(=O)N2 (stereo partly drawn)
2. CC1OC(=O)C2CC3CCCCC3C(/C=C/C3CCCC(C)N3C)C12 (stereo not drawn)

# output
["23.7 µM (inactive)", "> 100 µM (inactive)"]
